Source: paper PMC5540273

system: CDC2L1; construct: gene CDK11B; conditions: concentration: 1 μM, replicates: in singlicate; n = 1;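 further: KINOMEscan kinase panel screen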
quantity: %Inh (%)
Just the number please, in %, no unit attached.

Give its %Inh value. Item: "CN(c1ccc2c(c1)nc(NCc1ccccc1)n2C)c1ccnc(Nc2ccc(CS(C)(=O)=O)cc2)n1.Cl" 94.2

What value of %Inh has been recorded for this entry: "COc1ccc(NC(=O)c2ccoc2)cc1-c1ccc(C(=O)NCC2CC2)cc1" 14

Query: %Inh; subject: "Cn1cc(-c2ccc3c(c2)CCN3C(=O)Cc2cc(F)cc(F)c2F)c2c(N)ncnc21" 0

Look up %Inh: COc1cc(Nc2nccc(N3CCC(NC(=O)Nc4ccc5c(c4)OCO5)C3)n2)cc(OC)c1OC (centres unmarked) 0

Quick one: %Inh of "CCOc1nccc(-c2c(-c3ccc(F)cc3)ncn2C2CCNCC2)n1" ? 3

Please look up its %Inh: "CSc1ccc(NC2=C(c3ccc(Cl)cc3)C(=O)NC2=O)cc1" 0

Item under review: "O=C(Nc1c(F)cccc1F)c1cc(C(=O)c2ccccc2F)c[nH]1" . Reported %Inh? 0

Consider the compound shown here: "CN(C)CCOc1ccc(-c2cc(-c3ccc(Cl)c(O)c3)c(-c3ccncc3)[nH]2)cc1.Cl.Cl" What is its recorded %Inh? 0

====

test system: MAP3K2; conditions: concentration: 1 μM, replicates: in singlicate; n = 1
Respond with yes for %Inh values of 10% and above, no for values below.

# check: %Inh of "COc1cc(Nc2ccnc3cc(-c4ccncc4)ccc23)cc(OC)c1OC.Cl" is greater than or equal to 10% yes

State whether the measured %Inh reaches 10%, counting equality as reaching it, for "COc1cccc(C2=C(Nc3cccc(O)c3)C(=O)NC2=O)c1" yes

Reported %Inh at or above 10%? "CCNC(=O)/C=C/c1n[nH]c2cc(Sc3ccccc3C(=O)NC)ccc12" yes

Has "CC(C)c1nc(-c2ccc(F)c(NS(=O)(=O)c3c(F)cccc3F)c2)c(-c2ccnc(Nc3ccc(N4CCOCC4)nc3)n2)s1" a recorded %Inh greater than or equal to 10%? yes

Given "O=C(Nc1n[nH]c2nc(-c3cccc(O)c3)ccc12)C1CC1" , state whether its %Inh is at least 10%. yes

Tell me whether %Inh is at least 10% here: "Cc1ccc(NC(=O)c2ccc(Cl)c(Cl)c2)cc1-c1ccc(C(=O)Nc2ccncc2)cc1" no

Evaluate "CN(C)CCOc1ccc(-c2cc(-c3ccc(Cl)c(O)c3)c(-c3ccncc3)[nH]2)cc1.Cl.Cl" : %Inh at minimum 10%? no

# check: %Inh of "COc1cccc2c(-c3ccncc3)c(-c3ccc(F)cc3)nn12" is greater than or equal to 10% no

====

test system: CDC2L5; construct: gene CDK13; details: concentration: 1 μM, replicates: in singlicate; n = 1
quantity: %Inh (%)
Write the value in % as a bare number.

Consider the compound "O=C(Nc1n[nH]c2cc(-c3cccs3)ccc12)C1CC1" and give its measured %Inh. 85

Any idea what its %Inh is? The compound is "Nc1ncc(-c2cn[nH]c2)c2scc(-c3ccc4c(c3)CCN4C(=O)Cc3ccccc3)c12" 0

# query: %Inh of entry "Cc1cccc(Nc2nc(NCCN)ncc2C(N)=O)c1" 0

// query %Inh value for entry "Nc1ncc(-c2ccc3nccc(-c4ccncc4)c3c2)cc1S(=O)(=O)N1CCCCC1" 0

Entry under review: "COc1cc(Nc2nccc(N3CCC(NS(=O)(=O)c4ccc(NC(C)=O)cc4)CC3)n2)cc(OC)c1OC" . Reported %Inh? 0

// %Inh lookup, key: "CCNC(=O)/C=C/c1n[nH]c2cc(Sc3ccccc3C(=O)NC)ccc12" 9

Name the reported %Inh value associated with the compound "CC(C)c1nc(-c2ccc(F)c(NS(=O)(=O)c3c(F)cccc3F)c2)c(-c2ccnc(Nc3ccc(N4CCOCC4)nc3)n2)s1" 0

Item under review: "COc1cccc(CC(=O)N2CCc3cc(-c4cn(C)c5ncnc(N)c45)ccc32)c1" . Reported %Inh? 0
